test: luciferase reporter signal suppression in cells – H4 neuroglioma cells, luminescence, dose response (AID 1990); format: functional, cell-based
Activity calls are given as the source filed them. Cut-off read from the data, not from the text of the source: actives have a measured EC50 and inactives only a lower limit.
READOUT_NAME: EC50

Consider the reported EC50 for these molecules:
| MOLECULE | VALUE_OBSERVED |
| --- | --- |
| COc1ccc(S(=O)(=O)N2c3cc(Cl)ccc3Oc3nc4ccccc4nc32)cc1 | 3.64 µM (inconclusive) |
| CCCCC(=O)Nc1nc(C)c(-c2csc(Nc3cc(OC)ccc3OC)n2)s1 | 12.2 µM (active) |
| O=C(N/N=C(\Cc1ncc[nH]1)c1ccccc1)c1ccccc1 | 12.7 µM (active) |
| Cc1cccn2c(O)c(C(=O)NC3CC(C)CC(C)(C)C3)c(=O)nc12 (stereo unspecified) | 13.1 µM (active) |
| CCCCCC(=O)N/N=C(\C)c1ccccn1 | 12.5 µM (active) |

Sure, the documented EC50 for COc1ccc2c(c1)CCN=C2Cc1ccc(OC)c(OC)c1 is > 120 µM (not active)
